test: DRUGMATRIX: Purinergic P2X radioligand binding (ligand: [3H] alpha, beta-Methylene-ATP); format: cell membranes, Oryctolagus cuniculus, New Zealand albino, Urinary bladder, Membrane; conditions: Not Active = under 50% inhibition at 10 µM

compound: COC(=O)C1=C(C)NC(C)=C(C(=O)OCC(C)C)C1c1ccccc1[N+](=O)[O-] (configuration not stated)
IC50: Not Active

compound: C[C@H]1O[C@@H](O[C@H]2[C@@H](O)C[C@H](O[C@H]3[C@@H](O)C[C@H](O[C@H]4CC[C@@]5(C)[C@H](CC[C@@H]6[C@@H]5CC[C@]5(C)[C@@H](C7=CC(=O)OC7)CC[C@]65O)C4)O[C@@H]3C)O[C@@H]2C)C[C@H](O)[C@@H]1O
IC50: Not Active

compound: CC(=O)Nc1cccc(O)c1
IC50: Not Active

compound: C=C1CC[C@H](O)C/C1=C/C=C1\CCC[C@]2(C)[C@@H]([C@H](C)CCCC(C)C)CC[C@@H]12
IC50: Not Active

compound: Cc1ccc(S(=O)(=O)NC(=O)NN2CC3CCCC3C2)cc1 (configuration not stated) [GLICLAZIDE]
IC50: Not Active

compound: Nc1ccn([C@@H]2CS[C@H](CO)O2)c(=O)n1
IC50: Not Active

compound: CN(C)/N=N/c1[nH]cnc1C(N)=O
IC50: Not Active
